assay-target: T1, cynomolgus PD-1 (Acro Biosystems cat no. PD1-C5254) (cynomolgus, UniProt B0LAJ3 25-170)
T1 construct: bought recombinant protein; also called cyno PD-1; cynomolgus PD-1 recombinant protein; not shown: Human Fc tag of the vendor's construct, and any linker to it; The Fc is implied by detection with anti human-Fc cryptate
T1 sequence (B0LAJ3 entry or part of it limits assumed): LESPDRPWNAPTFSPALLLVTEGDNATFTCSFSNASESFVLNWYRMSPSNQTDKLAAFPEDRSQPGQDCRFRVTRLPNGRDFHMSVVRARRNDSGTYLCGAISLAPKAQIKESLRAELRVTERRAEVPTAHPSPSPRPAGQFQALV
method-description: HTRF binding assay, His-tagged VH on 2 nM recombinant PD-1
readout-label: EC50 (nM)

INSERT INTO assay_data (binder, unit_annotation, result) VALUES
  ('VH single domain antibody 1.2 (VHH, human VH single domain antibody) VHH: EVQLVESGGGLVQPGRSLRLSCAASGFTFDDYAMHWVRQAPGKDLEWVSGISWNGGSMGYAASVKGRFTISRDNAKNSLYLQMNSLRAEDTALYYCVKDKGPGLIGSTADYYGLDVWGQGTTVTVSS', 'nM', 1.1),
  ('VH single domain antibody 2.1 (VHH, human VH single domain antibody; also called Humabody VH 2.1; clone 2.1) VHH: EVQLVESGGGVVRPGGSLRLSCAASGFTFDDYAMSWVRQAPGKGLEWVSGITWNGGSTGYADSVKDRFTISRDNAKNSLYLQMNSLRAEDTALYYCVRDKYSYAWSYDGFDIWGQGTMVTVSS', 'nM', 6.3),
  ('VH single domain antibody 1.1 (VHH, human VH single domain antibody (Humabody), purified through its C-terminal His tag; also called Humabody 1.1; clone 1.1) VHH: EVQLLESGGGSVQPGRSLRLSCAASGFTFDDHAMHWVRQAPGKGLEWVSGISWNSGSMGYADSVKDRFTISRDNAKSSLYLQMNSLRAEDTALYYCVREKGPGLTGSTADYYGLDVWGQGTMVTVSS', 'nM', 0.6),
  ('Humabody VH 1.39 (VHH, human VH single domain antibody) VHH: EVQLVESGGGLVQPGRSLRLSCAASGFTFDDYALHWVRQAPGKDLEWVSGISWNGGSYGYADSVKGRFTISRDNAKNSLYLQMNSLRAEDTALYYCVREKGPGLTGSTADYYGLDAWGQGTMVTVSS', 'nM', 6),
  ('Humabody VH 2.12 (VHH, human VH single domain antibody) VHH: EVQLVESGGGVVRPGGSLRLSCAASGFTFDDYAMSWVRQAPGKGLEWVSGITWNAGSTGYADSVKGRFTISRDNAKNSLYLQMNSLRAEDTALYYCVRDKYSYAWSYDDFDIWGQGTMVTVSS', 'nM', 18);

meta.source: patent US20200239570A1
